Data origin: paper PMC4072508

Biological target: Bcl-xL (Homo sapiens)
Construct: myc-Bcl-xL SPOT array & FP; made in house
Assay: LUMIER full-length protein interaction
Type: binding
Conditions: LUMIER results for Bcl-xL; Z-score relative to Gaussian fit of the data; experiment 1, duplicate 2
Method: The LUMIER assay was carried out as previously described with the following modifications. A stable cell line expressing receptor tagged on the N-terminus with Nanoluc luciferase was created (the prey). […] After incubation and washing, luminescence was measured to quantify how much receptor-luciferase was captured by the bait protein. […]
Strictly below 0.8 in z-score 1.2: 1 (yes). Otherwise: 0 (no).

Completed entries (count: 5):
RNF160 (WLKGDILGEKLVNLADCLCNEDLESR)	1 (yes)
PCNXL2 (LLDFFMVSILFSKLGDLLHKLQFVLT)	0 (no)
CYP2A6 (MPYMEAVIHEIQRFGDVIPMSLARRV)	1 (yes)
PRCP (DDMFEPHSWNLKELSDDCFQQWGVRP)	0 (no)
CYBB (APEEDFFSIHIRIVGDWTEGLFNACG)	1 (yes)

Now look at this one.
Hello, I'm reviewing records and need to know if z-score 1.2 of CASP8 (PFKKMDFSRNLYDIGEQLDSEDLASL) is below 0.8. Could you check? 1 (yes)

* * *

biological target: Bcl-xL (Homo sapiens, UniProt Q07817); construct: myc-Bcl-xL SPOT array & FP; made in house; experiment: LUMIER full-length protein interaction; assay type: binding; conditions: LUMIER results for Bcl-xL; Z-score relative to Gaussian fit of the data; experiment 2, duplicate 1
Sequence (Q07817 with tags, fused parts or gaps): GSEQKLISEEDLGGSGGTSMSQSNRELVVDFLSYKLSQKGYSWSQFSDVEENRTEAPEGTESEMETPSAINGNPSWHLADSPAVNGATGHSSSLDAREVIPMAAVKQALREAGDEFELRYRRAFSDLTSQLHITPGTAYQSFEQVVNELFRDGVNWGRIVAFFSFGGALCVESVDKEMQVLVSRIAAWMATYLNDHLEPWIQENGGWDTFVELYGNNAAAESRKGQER
experimental readout: z-score 2.1
The answer should be a number; do not append a unit.

NOL8 (KYDPSKYCHNLKKIGEDFSNTIPISS)	4.4
CASP8 (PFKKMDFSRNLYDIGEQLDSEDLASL)	0.3161

Consider the record given below.
// fetch z-score 2.1 for PRCP (DDMFEPHSWNLKELSDDCFQQWGVRP) ; system: Bcl-xL (Homo sapiens, UniProt Q07817) 0.4444

* * *

target: Mcl-1 (Homo sapiens, UniProt Q07820); construct: myc-Mcl-1 SPOT array & FP; made in house; experiment: Fluorescence polarization direct binding
Sequence (Q07820 with tags, fused parts or gaps): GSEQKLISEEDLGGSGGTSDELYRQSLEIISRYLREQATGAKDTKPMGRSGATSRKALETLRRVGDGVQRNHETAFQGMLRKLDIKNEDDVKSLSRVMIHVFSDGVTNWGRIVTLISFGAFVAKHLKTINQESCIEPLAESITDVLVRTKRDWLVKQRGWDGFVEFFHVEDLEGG
No end group written: not given here.
experimental readout: Kd

Return Kd for the following substance: RLVQQSKALKELADELQERAQRP-NH2 [TRIM58] > 6.07 µM

* * *

biological target: Bcl-xL (Homo sapiens); construct: myc-Bcl-xL SPOT array & FP; made in house; assay: Fluorescence polarization direct binding; settings: Binder class, Bcl-xL, benchmark classification of peptides newly characterized in this study
pKd: −log10 of the molar value. No end group written: not given here.
experimental readout: pKd

Complete the entry with pKd for RLVQQSKALKELADELQERAQRP-NH2 [TRIM58] 5.00 to 6.00

* * *

Molecular target: Bcl-w (Homo sapiens, UniProt Q92843, Q133R)
Construct: myc-Bcl-w SPOT array & FP; made in house
Sequence (Q92843 with tags, fused parts or gaps Q133R): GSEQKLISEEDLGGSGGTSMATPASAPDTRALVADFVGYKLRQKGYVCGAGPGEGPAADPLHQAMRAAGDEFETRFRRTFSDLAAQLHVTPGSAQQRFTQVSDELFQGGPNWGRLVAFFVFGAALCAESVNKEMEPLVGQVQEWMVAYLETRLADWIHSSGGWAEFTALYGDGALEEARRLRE
Assay: Fluorescence polarization direct binding
Conditions: benchmark classification of peptides newly characterized in this study; read-out: Binder class, Bcl-w
pKd: −log10 of the molar value. No end group written: not given here.
This section presents substances with their documented pKd values.

LRLFLAQRLRWLADSAPASRATA-NH2 [NBEAL2]	> 6.00
ATRRLSGFLRTLADRLEGTKELL-NH2 [MINA]	5.00 to 6.00
GDSVLARMLRELGDSLRRPQLRL-NH2 [SLC19A1]	> 6.00
FTGNNTAVQELKRVSEQFTATFRRKA-NH2 [TUBB4Q]	5.00 to 6.00
EVLAGPLAQRLSHIAEDVGRLVKKSR-NH2 [ARHGAP4]	5.00 to 6.00

Give Bcl-w (Homo sapiens, UniProt Q92843, Q133R) pKd for the following substance: LSDGLPVHLANIADELTQKKKMF-NH2 [AGBL2] 5.00 to 6.00

Consider the substance APYYLSRNLKQQADIIFMPYNYL-NH2 [RTEL1] tested on Bcl-w (Homo sapiens, UniProt Q92843, Q133R); state its pKd. 5.00 to 6.00

Quote pKd with test system Bcl-w (Homo sapiens, UniProt Q92843, Q133R) for AWGKFGGAFARYADEMKEIQERQ-NH2 [PURB] < 5.00

Find the measured pKd of IIHKLAMQLRHIGDNIDHRMVRE-NH2 [PXT1] with Bcl-w (Homo sapiens, UniProt Q92843, Q133R) as test system. > 6.00

For Bcl-w (Homo sapiens, UniProt Q92843, Q133R), give the measured pKd of the entry SKFVILSAHKLVFIGDTLSRQAKAAD-NH2 [BCAR1] > 6.00

Would you please give the reported pKd of PILENPEILRKTADDFLNRIALT-NH2 [CCH] with Bcl-w (Homo sapiens, UniProt Q92843, Q133R)? 5.00 to 6.00

GET pKd | system: Bcl-w (Homo sapiens, UniProt Q92843, Q133R) | item: GSGAWGLLLRRVGDDVLVHLLAR-NH2 [TERT] > 6.00

Fill in pKd for FIQSLAAMLKQYADKLEFMHILT-NH2 [CASP3] tested with Bcl-w (Homo sapiens, UniProt Q92843, Q133R). > 6.00

For Bcl-w (Homo sapiens, UniProt Q92843, Q133R), give the measured pKd of the entry SYMVLAPVFGYLGDRYNRKYLMA-NH2 [SPNS1] > 6.00

Tell me pKd of LMARPAVALHFQSIADGFKEAVRYVL-NH2 [SOS2] when tested on Bcl-w (Homo sapiens, UniProt Q92843, Q133R). 5.00 to 6.00

Report its pKd with Bcl-w (Homo sapiens, UniProt Q92843, Q133R) as the test system: QRKHEGFERDLAALGDKVNSLGETAE-NH2 [SPTAN1] < 5.00

// fetch pKd for THEEVVHLLRNAGDEVTITVEYL-NH2 [SNTG2] ; system: Bcl-w (Homo sapiens, UniProt Q92843, Q133R) < 5.00

# lookup: Bcl-w (Homo sapiens, UniProt Q92843, Q133R) pKd, key = DARDYAVVLRKYADKIYSISMKH-NH2 [FOLH1] < 5.00

Quote pKd with test system Bcl-w (Homo sapiens, UniProt Q92843, Q133R) for KKMTLSEIYRWIADNFPYYKNAG-NH2 [FOXJ2] > 6.00

Look up Bcl-w (Homo sapiens, UniProt Q92843, Q133R) data: pKd of ATKRETAATFLKKVAKEFGFQNNGFS-NH2 [NPLOC4] , then report it. < 5.00

Provide measured pKd on Bcl-w (Homo sapiens, UniProt Q92843, Q133R) for ELQELARKLQELADASENLLTEN-NH2 [TXNDC11] please. > 6.00

Under Bcl-w (Homo sapiens, UniProt Q92843, Q133R): report pKd of RSMVFARHLREVGDEFRSRHLNS-NH2 [POFUT2] . > 6.00

Quote Bcl-w (Homo sapiens, UniProt Q92843, Q133R) pKd for entry KREKLVEILRNIGDERTMVFVET-NH2 [DDX4] . 5.00 to 6.00

Please report pKd with Bcl-w (Homo sapiens, UniProt Q92843, Q133R) for item AIRPRAVELRHLADDFINGNKKK-NH2 [MCF2L2] . 5.00 to 6.00

Recall the reported pKd of RVEQMAIQIKEVGDRVNYIKRSL-NH2 [TRPM7] when tested on Bcl-w (Homo sapiens, UniProt Q92843, Q133R). > 6.00

Fill in pKd for RYRHGAPAEQLRHLADMLTTKWATLQ-NH2 [PLEKHH1] tested with Bcl-w (Homo sapiens, UniProt Q92843, Q133R). < 5.00
